System: MS2 coat protein
Assay: apparent KD of MS2 coat protein; designed switch direction (-1 OFF switch, 1 ON switch): -1; higher = weaker reporter binding
Conditions: input ligand: FMN 200 uM
ENDPOINT_NAME: apparent KD of MS2 coat protein (nM)
Answers are plain numbers, in nM.

Illustrative cases are given below, each with its answer.
SEQUENCE	apparent KD of MS2 coat protein / nM
ACAAGCUCUGUGGGUGGUGACAUGAGGAUCACCCAUGUUUUGCUCGUCUUGUGCCGGCCGGCCCGCGGCCGGCCGGC [-40.6, -69.5, A 12%] (Eterna round: R97, puzzle: Sensor, turn-off variant 1)	718
CGGCAUGAAGGAUAUACAUGAGGAUCACCCAUGUAAGUUACCUACAUGGCCUCACCUAGUAGAAGGUUAUCCGG [Eternabot (L2) Solution 72] (Eterna round: R97, puzzle: Exclusion 3)	94.4
AUAAUGUAAGGAUAUCAGUCGACUAGCUGCGGCUAGUCGACUGAGAAGGUACAUGAGGAUCACCCAUGUGAUUA [E4/10-A3] (Eterna round: R97, puzzle: Exclusion 4)	889

I'm hoping you can list apparent KD of MS2 coat protein for every sequence here, please.
1. AGCUGUGGCCGAGGAUAUCCACAUGAGGAUCACCCAUGUUGAUACGCCGUUAGGCGAUAUAGAAGGGAGAAGGCGGUCUCAGCA [Eli eng2 - 050] (Eterna round: R96, puzzle: Exclusion NG 2)
2. AACUGUCUAAAGGAUAUGCUGGAUUAAUAUCUGGCAGAAGGUUAGACAUGAGGAUCACCCAUGUAAAUACCACC [Omei Ex6 A10] (Eterna round: R97, puzzle: Exclusion 6)
3. UUAUAUAGGUAGGAUAUCGAUUUUAAUUAAUUUCGAGAAGGGUCAACAUGAGGAUCACCCAUGUCAGCAUGUAU [LRO-Excl6-05-Rocketman] (Eterna round: R97, puzzle: Exclusion 6)
4. CGCACACAUGAGGAUCACCCAUGUGAGGAUAUCAUGCUUCGUAGUAAACUACGAAGUGUGAGAAGGCACAUGCA [Omei Ex1 D6] (Eterna round: R97, puzzle: Exclusion 1)
5. CUAGCUAUUGUAGGAUAUCGAUGUGUUUCACAUCGAGAAGGACAUGAGGAUCACCCAUGUGAAGGAUCGUGAGAUCCAAGCUAG [JL ENG1 3.77] (Eterna round: R96, puzzle: Exclusion NG 1)
6. UAUCUAUGAGGAUAUCAUAGUAGUUACAUGAGGAUCACCCAUGUCAUGACAGAACUGGGAUGAGAAGGCAUUCGUU [Eternabot (L2) Solution 73] (Eterna round: R97, puzzle: Exclusion 5)
7. UCAAGCUUUAAGCGUGUGAACAUGAGGAUCACCCAUGUAUUUUAGGUAAUAAGUUCAAUUAUGUAUUCUCGUCUUAU [JR_SWV3TOV1_Sub095] (Eterna round: R96, puzzle: Sensor v3, turn-off variant 1)
8. UUUUAGUCAGGAUAUACAUGAGGAUCACCCAUGUAAACUUUUAGUUUAAUUUGAAUGUGUAGAAGGGACAUUUU [Ex3 #44] (Eterna round: R97, puzzle: Exclusion 3)

[7.84, 106, 45.6, 169, 128, 291, 61.5, 34.3]

I'm hoping you can list apparent KD of MS2 coat protein for every sequence here, please.
1. GCUCCAGGAGGAUAUGCAUUCGAAAACAUGAGGAUCACCCAUGUAGGUGUCCUCGUGCGAGCAGAAGGCCUAAAAC [Rebebiso] (Eterna round: R97, puzzle: Exclusion 5)
2. AAUACAAGCUAUUGAUCCCACAUGAGGAUCACCCAUGUUCCUGGCCGUGAGACAAGGUUGACAAUAGCUCGUCUUAU [Sensor-V1 #45] (Eterna round: R97, puzzle: Sensor, turn-off variant 1)

1. 145
2. 285

---

Hi there, I'd appreciate the recorded apparent KD of MS2 coat protein for every entry that follows.
Tested on: MS2 coat protein
Test: apparent KD of MS2 coat protein; higher = weaker reporter binding
Conditions: Eterna round: R107; input ligand: tryptophan 2.4 mM
Kindly format the answer as number then unit.

SEQUENCE	EXPERIMENTAL_SYSTEM	apparent KD of MS2 coat protein
AAGGGAGAGUCAGAUACCAGAGUAAGAUGGCAUGGUAAUUACAUGAGGAUCACCCAUGUAUUCCCUUGGCAGCUGACCCUACGUU [Exclusion Theophylline B GF 19]	MS2 coat protein	0.0128 µM
AAUCGUAAGGCGGCCGCCACUACACAUGAGGAUCACCCAUGUCUCGCAGGCUUGCGUUGGGUUAGUAGGACCGGGCCAGUAAUAA [Exclusion - Tryptophan B (Freestyle 15)]	MS2 coat protein	0.0345 µM
AAAUAAAUAACUGAUACCAGUCGGACAACAUGAGGAUCACCCAUGUUCACCCAUGUUGAGGACCCUUGGCAGCAGAAAUAUAAAA [test (nupak+vienna]	MS2 coat protein	0.243 µM
UUAACAUGAGGAUCACCCAUGUUUGAUGAAGGAGCGACCAGAGGGUCAGGUAGGUCGCAUCACAUGAGGAUCACCCAUGUCGCCC [DOUBLE!!! :-D #13]	MS2 coat protein	0.0224 µM
AGUCUAUGGAGAGAUACCAGUGAGAGCCAUAGACAUGAGGAUCACCCAUGUGACAUGGAUCACCCUUGGCAGCUCAACGAGCUCU [#20 Same State - Theophylline B]	MS2 coat protein	0.0871 µM
CUCUGAGUCCGUAAGGACUCAGAGGCGGAUACCAGCGAGGUCCAUCGCCCUUGGCAGCCGAACAUGAGGAUCACCCAUGUCGGUA [#1 Same State - Theophylline A Attempt #25 (HarryS)]	MS2 coat protein	0.0115 µM
CAGAGCUACCGGGAUACCAGAAAUGGUAUUCCUUAAUUUCUUACAUGAGGAUCACCCAUGUUCCCUUGGCAGCUUGGUAGCUCUG [ETHB #8]	MS2 coat protein	0.0837 µM
AUGCUUGUCAGAAGGAGCGUCUUUAACAUGAGGAUCACCCAUGUAUCAUGGAAUUUGAUGAGACAGGUAGGUCGCUGAAUAGUAA [JR_SSArginiB_Sub021]	MS2 coat protein	0.0257 µM

I'm hoping you can list apparent KD of MS2 coat protein for every sequence here, please.
1. AGACGAGCAAUCAACGGGCGUUUCGUGACGCGAGGACCGGUACGGCCGCCACUCGAGUCUGGACAUGAGGAUCACCCAUGUUAUG [theeternabot_exclusion_MS2_Trp_A_46]
2. GGAUAGGACAGAAGGAGCGUGAGAUGCAAAGCUUCAUUCCUCACAUGAGGAUCACCCAUGUCACAGGUAGGUCGCUGUCCUAUCG [#19 Exclusion - Arginine B]
3. AAUAUAUAGACGGCCGCCACUGGAAUUAAUACAUGAGGAUCACCCAUGUGAAGAGGAUAAUAACACAGGACCGGGUCUUCAUGUA [SS Tryp B Tesla 1.2]

1. 0.0222 µM
2. 0.0789 µM
3. 0.138 µM

I'm hoping you can list apparent KD of MS2 coat protein for every sequence here, please.
1. UCCUCCUCCGCAAGGAGGAGGAGUUGCGAUACCAGCACGGUAACGUGCCCUUGGCAGCGCACAUGAGGAUCACCCAUGUCAUGUU [#1 Exclusion - Theophylline A Attempt #11 (HarryS)]
2. AAUAACAUGAGGAUCACCCAUGUAAAAGAUACCAGAUGCAUGAUGAUCCCUUGGCAGCUUAAAACGCGAUUGGAAACAAUCGCGA [Mat - Same State Theophlline A - Mod of Eli - D13]
3. AACGUAUACAGAAGGAGCGUGAUUUAUAUUACUCAUUCAUAUACAUGAGGAUCACCCAUGUCACAGGUAGGUCGCUGUAUUCGUA [JR_ExcArginiB_Sub021]
4. UACAUGAGGAUCACCCAUGUAUACAUGGAUACCAGCGACAAUGGGCGCCCUUGGCAGCUAGUGGAUGGAGGGUGGCCACAGUACU [Exclusion Theophyline A GF5]
5. UAAAUAUUACUGGGUAAGGUAUAAAUAGAUACCAGCCAGAUAACUGGCCCUUGGCAGCUAAACAUGAGGAUCACCCAUGUAUAAU [TheoAS 20 #OpenEnded #Ms2Late]

0.0171 µM
0.0308 µM
0.108 µM
0.0427 µM
0.0332 µM

---

Hi there, I'd appreciate the recorded apparent KD of K4 kissing-loop reporter for every entry that follows.
System: K4 kissing-loop RNA reporter;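 note: bound reporter read as fluorescence of individual clusters on recovered sequencing chips by microscopy, with normalized cluster intensities fitted with a binding model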
Assay: apparent KD of K4 kissing-loop reporter; higher = weaker reporter binding
Settings: Eterna round: R107; input ligand: tryptophan 2.4 mM
Give bare numbers, in nM.

I'm hoping you can list apparent KD of K4 kissing-loop reporter for every sequence here, please.
1. CAAUGAAUAUAAGAUGAUAUCAUAACAGAAGGAGCGAGUGAUAACUCAGGUAGGUCGCUGAAUUUAUCGAGUGAUGUUCGAUAAA [Same State Arginine A GF10]
2. ACGUCACGUAAACUCGUGGUUUCGAUCGAUACCAGUAGCGAGAGUUACCCUUGGCAGCGACAUGAGUGAUGUUCAUGUACGAAGA [KL-XTheoA1]
3. GCAACAUUGGGAGGAUAUCAUUCUGAGUGAUGUUCAGGGUUCAGCUAACGAAAGUUAGUUGUACCAUGAGAAGGUCUAAUGUUGC [Omei KL FMN B SS A v6]
4. AGAUUCGACACGGCCGCCACUUCCGGUGGCUGGUGUCAUGGUGCGCGUGAGUGAUGUUUAUGUGGGAGGACCGGGUGUUGAGUCU [whbob_Ex_Tryp_B_w42]
5. GGCUAGACUUAGCUAGGUACAUAAUACGAUACCAGUCUAGAAAUAGACCCUUGGCAGCGUAGGCAGUGAUGUUGCCACUAGCUGA [Theo B SS t7]
6. GUCCACACUGCAGGAUAUGGAGAAAUAGCGAGGGAGCUUGGAAGCACGCCUCUGGCAGUGAUGUUGCCAGAAGGGCGGUGCGGCG [Dilazasole]
7. AAGUAGCUCUCGGCCGCCACUCCUCAGUGAUGUUGAGAUUUUUUCUGCCAAUUGGCGUUUUUUUAGAGGACCGGGAGAGCUACAA [AK1 SS Tryptophan B]
8. UGAUAGGACAGAAGGAGCGGAAGUGAUGUUUCCAAAAGGAUAAGGUGUCAAAAGACACCCUUCCAGGUAGGUCGCUGUCCUAUCU [ArgBX 13 #Palindromic #SwitchBubble #StaticStem]

1: 183; 2: 91.7; 3: 1150; 4: 704; 5: 113; 6: 80.8; 7: 124; 8: 136

I'm hoping you can list apparent KD of K4 kissing-loop reporter for every sequence here, please.
1. AAGCAGUCACUCGCAGCCAUCGAAGAUGGUCGAGGACCGGUACGGCCGCCACUCGGAGUGAUGUUCCGAAGACUGCAAAAUAAAA
2. GCGCGUCAUGUCAGCGGUGACUACGUCGAUACCAGCAGGGAAACCUGCCCUUGGCAGCGACGCGCUGGAGUGAUGUUCCGACAGA [#2 Exclusion - Theophylline A Attempt #5 (HarryS)]
3. CCAGGAUGAUGAGGAUGAUAAAUUACUGAAGGAGCGCAUAUAGUUGCAGGUAGGUCGCGGUGAAUAAGUAUAGUGAUGUUAUACC [SSArgA.Aa]
4. UAUGAAGGUGGAGGAUAUUGAUUGAAUCUUGGUCUGGAGUGAUGUUCCGGGAAGCCUUGGAUUCAUCGAGAAGGCCAAGGAUAGU [Extra 1]

400
176
301
198

In plain terms, AGCAGUGAUGUUGCAUUUAAAAUGACCGAUACCAGUAUCGAUAGAUACCCUUGGCAGCGGAUUUCCGCAACGACUAGGAAACUAG [Ex Theophylline A K4 15] has a documented apparent KD of K4 kissing-loop reporter of 327
